- Test Method Notes: Inhibition of recombinant HIV-1 integrase catalysed strand transfer activity measured after 60 mins by electrochemiluminescent plate-based assay
- Design: species or system Human immunodeficiency virus 1
Assay Metric: pIC50
The scale used: pIC50 is minus the common logarithm of the concentration in molar units.

These solved cases illustrate the format of a correct answer.
O=S(=O)(O)c1cc(/N=N/c2cc(S(=O)(=O)O)c3ccccc3c2O)ccc1/C=C/c1ccc(/N=N/c2cc(S(=O)(=O)O)c3ccccc3c2O)cc1S(=O)(=O)O | 6.74
Nc1ccc(/N=N/c2ccc(/C=C/c3ccc(/N=N/c4ccc(N)c5ccc(S(=O)(=O)O)cc45)cc3S(=O)(=O)O)c(S(=O)(=O)O)c2)c2ccc(S(=O)(=O)O)cc12 | 5.49

Next compound, please.
Would you mind telling me what pIC50 value was observed for CCOc1ccc(/N=N/c2ccc(/C=C/c3ccc(/N=N/c4ccc(OCC)cc4)cc3S(=O)(=O)O)c(S(=O)(=O)O)c2)cc1 ?
6.30

* * *

Parameter: selectivity ratio. Scope: all listed entries.
- Test Method Notes: Selectivity index, ratio of CC50 for cytotoxicity against human Huh-7 cells to EC50 for Dengue virus 2 New Guinea C infected in human Huh-7 cells
- Assay type: toxicity, cell-based
- Condition Set: read-out: Ratio CC50/EC50

COc1cc(/C(C#N)=C\c2cc3ccccc3s2)cc(OC)c1OC | 263

Would you mind telling me what selectivity ratio value was observed for COc1cc(/C(C)=C/c2cc3ccccc3[nH]2)cc(OC)c1OC ?
209

* * *

Parameter: CC50 at 72 h. Scope: all listed entries.
- Test Method Notes: Cytotoxicity against human Huh-7 cells assessed as reduction in cell viability incubated for 3 days by MTT assay
- Format: toxicity, cell-based
- Condition Set: time 3 day
Just the number in nM, nothing appended.

COc1cc(/C(C)=C/c2cc3ccccc3[nH]2)cc(OC)c1OC | 1700

Next compound, please.
Would you mind telling me what CC50 at 72 h value was observed for COc1cc(/C(C#N)=C\c2cc3ccccc3s2)cc(OC)c1OC ?
1900

* * *

- System: Hepatitis C virus
- Test Method Notes: Antiviral activity against Hepatitis C virus genotype 1 infected in Bart79I RNA-transfected human Huh7.5 cells assessed as reduction in viral replication incubated for 24 to 72 hrs by RT-PCR assay
- Format: functional, organism-based, Hepacivirus hominis
- Condition Set: genotype 1, Huh7.5
Parameter: pEC50. Scope: all listed entries.
The scale used: pEC50 is minus the common logarithm of the concentration in molar units.

CC(=O)Oc1ccc(/C=C/c2cc(OC(C)=O)cc3c2C(c2cc(OC(C)=O)cc(OC(C)=O)c2)C(c2ccc(OC(C)=O)cc2)O3)cc1 (stereo not drawn) | 4.98
Oc1ccc(/C=C/c2cc(O)cc3c2C(c2cc(O)cc(O)c2)C(c2ccc(O)cc2)O3)cc1 (racemic) | 5.77

Would you mind telling me what pEC50 value was observed for Oc1ccc(/C=C/c2cc(O)cc3c2[C@@H](c2cc(O)cc(O)c2)[C@H](c2ccc(O)cc2)O3)cc1 [EPSILON-VINIFERIN] ?
5.15

* * *

- Tested on: Human immunodeficiency virus 1
- Test Method Notes: Antiviral activity against HIV-1 infected in HEK293T cells
- Format: functional, organism-based
- Condition Set: Human immunodeficiency virus 1, HEK-293T
Assay Metric: EC50 (µM)
Just the number in µM, nothing appended.

Would you mind telling me what EC50 value was observed for Oc1ccc(-c2sc3ccccc3c2-c2cc(O)cc(O)c2)cc1 ?
45.1

Would you mind telling me what EC50 value was observed for Oc1ccc(-c2c(-c3cc(O)cc(O)c3)sc3ccccc23)cc1 ?
34.4

Would you mind telling me what EC50 value was observed for Oc1ccc(-c2c(-c3cc(O)cc(O)c3)oc3ccccc23)cc1 ?
35

Would you mind telling me what EC50 value was observed for Oc1ccc(-c2oc3ccccc3c2-c2cc(O)cc(O)c2)cc1 ?
65.1

* * *

Parameter: selectivity ratio. Scope: all listed entries.
- Test Method Notes: Therapeutic index, ratio of CC50 for cytotoxicity against human C8166 cells to EC50 for antiviral activity against HIV-1 infected in C8166 cells
- Type: toxicity, cell-based
- Condition Set: read-out: Ratio CC50/EC50
A bare number is all that is needed in reply.

These solved cases illustrate the format of a correct answer.
O=S(=O)([O-])O[C@H]1[C@H](O)[C@@H](O)[C@H](Oc2cc(O)cc(/C=C\c3ccc(O)cc3)c2)O[C@@H]1CO.[Na+] | 1.17
Oc1ccc(/C=C/c2cc(O)cc(O)c2)cc1 [RESVERATROL] | 8.14

Next molecule, please.
Would you mind telling me what selectivity ratio value was observed for O=S(=O)([O-])Oc1cc(/C=C/c2ccc(O)cc2)cc(O[C@@H]2O[C@H](CO)[C@@H](O)[C@H](O)[C@H]2O)c1.[Na+] ?
5.87

* * *

- Test Method Notes: Cytotoxicity against HCV RNA-transfected human Huh7.5 cells assessed as reduction in cell viability
- Type: toxicity, cell-based, Huh-7.5
- Condition Set: HCV RNA-transfected Huh7.5 cells
Assay Metric: CC50

These solved cases illustrate the format of a correct answer.
CC(=O)Oc1ccc(/C=C/c2cc(OC(C)=O)cc3c2C(c2cc(OC(C)=O)cc(OC(C)=O)c2)C(c2ccc(OC(C)=O)cc2)O3)cc1 (stereo not drawn) | > 10 µM
Oc1ccc(/C=C/c2cc(O)cc3c2C(c2cc(O)cc(O)c2)C(c2ccc(O)cc2)O3)cc1 (racemic) | > 10 µM

Next molecule, please.
Would you mind telling me what CC50 value was observed for Oc1ccc(/C=C/c2cc(O)cc3c2[C@@H](c2cc(O)cc(O)c2)[C@H](c2ccc(O)cc2)O3)cc1 ?
> 10 µM

* * *

- Test Method Notes: Selectivity index, ratio of CC50 for cytotoxicity against MDCK cells to IC50 for influenza A virus A/Guangdong/243/72 ([…]) infected in MDCK cells
- Format: toxicity, cell-based
- Condition Set: dog, read-out: Ratio CC50/IC50
Assay Metric: selectivity ratio

COc1cc(/C=C/c2cc(O)cc(O)c2)ccc1O | 8.99
COc1cc(/C=C/c2cc(O)cc(O)c2Cc2ccc(O)c(O)c2)ccc1O | 32.4

Would you mind telling me what selectivity ratio value was observed for Oc1ccc(/C=C/c2cc(O)c3c(c2)O[C@H](c2ccc(O)cc2O)[C@H]3c2cc(O)cc(O)c2)cc1 ?
57.4

Would you mind telling me what selectivity ratio value was observed for COc1cc([C@H]2Oc3c(ccc(/C=C/c4cc(O)cc(O)c4)c3OC)[C@@H]2c2cc(O)cc(O)c2)ccc1O ?
9.6

* * *

- Test system: Hepatitis C virus
- Test Method Notes: Antiviral activity against Hepatitis C virus genotype 2 infected in renilla luciferase-J6/JFH1 RNA-transfected human Huh7.5 cells assessed as reduction in viral replication incubated for 72 hrs by qRT-PCR analysis
- Format: functional, organism-based, Hepacivirus hominis
- Condition Set: genotype 2, Huh7.5, 72 h
Assay Metric: pEC50
The scale used: pEC50 is minus the common logarithm of the concentration in molar units.

Would you mind telling me what pEC50 value was observed for Oc1ccc(/C=C/c2cc(O)cc3c2C(c2cc(O)cc(O)c2)C(c2ccc(O)cc2)O3)cc1 (racemic) ?
6.70

Would you mind telling me what pEC50 value was observed for Oc1ccc(/C=C/c2cc(O)cc3c2[C@@H](c2cc(O)cc(O)c2)[C@H](c2ccc(O)cc2)O3)cc1 [EPSILON-VINIFERIN] ?
7.00

Would you mind telling me what pEC50 value was observed for CC(=O)Oc1ccc(/C=C/c2cc(OC(C)=O)cc3c2C(c2cc(OC(C)=O)cc(OC(C)=O)c2)C(c2ccc(OC(C)=O)cc2)O3)cc1 (stereo not drawn) ?
5.63

* * *

- Test Method Notes: Cytotoxicity against MDCK cells assessed as reduction in cell viability incubated for 72 hrs by MTT assay
- Assay type: toxicity, cell-based, Canis lupus familiaris
- Condition Set: dog
Assay Metric: CC50 at 72 h

Would you mind telling me what CC50 at 72 h value was observed for O=C(O)c1ccccc1/N=N/c1ccc(O)cc1O ?
> 100 µg/mL

* * *

- Test Method Notes: Cytotoxicity against human C8166 cells assessed as inhibition of cell growth by MTT assay
- Type: toxicity, cell-based
Assay Metric: CC50 (µg/mL)
Just the number in µg/mL, nothing appended.

O=S(=O)([O-])O[C@H]1[C@H](O)[C@@H](O)[C@H](Oc2cc(O)cc(/C=C/c3ccc(O)cc3)c2)O[C@@H]1CO.[Na+] | 813
Oc1ccc(/C=C/c2cc(O)cc(O)c2)cc1 [RESVERATROL] | 35.6
O=S(=O)([O-])OC[C@H]1O[C@@H](Oc2cc(O)cc(/C=C/c3ccc(O)cc3)c2)[C@H](O)[C@@H](O)[C@@H]1O.[Na+] | 746
O=S(=O)([O-])Oc1cc(/C=C/c2ccc(O)cc2)cc(O[C@@H]2O[C@H](CO)[C@@H](O)[C@H](O)[C@H]2O)c1.[Na+] | 527

Would you mind telling me what CC50 value was observed for O=S(=O)([O-])O[C@H]1[C@H](O)[C@@H](O)[C@H](Oc2cc(O)cc(/C=C\c3ccc(O)cc3)c2)O[C@@H]1CO.[Na+] ?
98.8
